A collection of compounds and their measured pIC50
MEASURED_TARGET: EGFR L858R/T790M (Homo sapiens, UniProt P00533, L858R/T790M)
Sequence (P00533 25-1210 T790M/L858R): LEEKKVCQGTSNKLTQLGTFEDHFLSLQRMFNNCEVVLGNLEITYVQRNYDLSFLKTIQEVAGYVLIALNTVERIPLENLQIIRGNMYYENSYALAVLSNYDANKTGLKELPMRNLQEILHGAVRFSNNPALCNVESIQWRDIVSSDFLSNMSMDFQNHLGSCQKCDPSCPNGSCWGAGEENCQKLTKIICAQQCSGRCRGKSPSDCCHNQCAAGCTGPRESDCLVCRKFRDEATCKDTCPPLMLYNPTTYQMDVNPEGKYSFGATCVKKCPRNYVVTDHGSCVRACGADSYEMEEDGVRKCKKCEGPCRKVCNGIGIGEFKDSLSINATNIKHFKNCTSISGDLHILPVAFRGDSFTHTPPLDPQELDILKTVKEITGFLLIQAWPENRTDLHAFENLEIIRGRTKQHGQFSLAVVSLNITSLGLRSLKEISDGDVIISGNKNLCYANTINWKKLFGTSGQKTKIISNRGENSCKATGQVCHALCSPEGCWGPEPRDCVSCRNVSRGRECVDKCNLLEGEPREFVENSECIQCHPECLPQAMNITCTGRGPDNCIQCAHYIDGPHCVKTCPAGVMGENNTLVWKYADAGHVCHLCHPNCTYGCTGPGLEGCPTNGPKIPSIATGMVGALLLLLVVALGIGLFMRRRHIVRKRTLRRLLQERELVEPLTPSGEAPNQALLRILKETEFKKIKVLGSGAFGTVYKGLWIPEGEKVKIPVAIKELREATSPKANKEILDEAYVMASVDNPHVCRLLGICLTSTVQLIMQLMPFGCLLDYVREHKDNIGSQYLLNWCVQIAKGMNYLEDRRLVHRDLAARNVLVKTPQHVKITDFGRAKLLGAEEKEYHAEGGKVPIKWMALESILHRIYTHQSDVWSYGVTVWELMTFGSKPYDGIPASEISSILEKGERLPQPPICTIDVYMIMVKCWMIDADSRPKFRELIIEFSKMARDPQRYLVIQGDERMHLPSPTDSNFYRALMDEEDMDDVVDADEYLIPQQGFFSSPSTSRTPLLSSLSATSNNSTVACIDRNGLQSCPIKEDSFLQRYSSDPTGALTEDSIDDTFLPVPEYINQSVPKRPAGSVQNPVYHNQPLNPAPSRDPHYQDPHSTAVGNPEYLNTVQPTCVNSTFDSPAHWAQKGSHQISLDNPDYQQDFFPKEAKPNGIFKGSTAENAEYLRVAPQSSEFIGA
EXPERIMENTAL_DETAILS: HTRF-based EGFR biochemical assay, L858R/T790M
CONDITION_SET: 100 μM ATP, enzyme 0.02 nM
Conceptually, pIC50 converts a concentration in mol/L into minus its log10.

>>> print(df.to_string())
                                   compound                           measured_target  result
0  CSc1nc(-c2cccc(NC(=O)Nc3ccccc3)c2)c(-c2ccnc(NC(C)=O)c2)[nH]1 [Compound 005]  EGFR L858R/T790M (Homo sapiens, UniProt P00533, L858R/T790M)    5.43
1  CSc1nc(-c2cccc(NC(=O)CCc3ccccc3)c2)c(-c2ccnc(NC(C)=O)c2)[nH]1  EGFR L858R/T790M (Homo sapiens, UniProt P00533, L858R/T790M)    5.10
2  CSc1nc(-c2ccc(F)c(NC(=O)Cc3c(F)cccc3F)c2)c(-c2ccnc(NC(C)=O)c2)[nH]1  EGFR L858R/T790M (Homo sapiens, UniProt P00533, L858R/T790M)    5.72

Request: Query (compound): CSc1nc(-c2cccc(NC(=O)Nc3ccc(F)c(Cl)c3)c2)c(-c2ccnc(NC(C)=O)c2)[nH]1 ; field requested: pIC50
Result: 5.66

Request: // query: CSc1nc(-c2cccc(NC(=O)Nc3ccc(F)cc3)c2)c(-c2ccnc(NC(C)=O)c2)[nH]1
Result: 5.28

###

The entries below come with measured IC50 values attached.
MEASURED_TARGET: EGFR L858R/T790M/C797S (Homo sapiens, UniProt P00533, C797S/L858R/T790M)
Sequence (P00533 25-1210 T790M/C797S/L858R): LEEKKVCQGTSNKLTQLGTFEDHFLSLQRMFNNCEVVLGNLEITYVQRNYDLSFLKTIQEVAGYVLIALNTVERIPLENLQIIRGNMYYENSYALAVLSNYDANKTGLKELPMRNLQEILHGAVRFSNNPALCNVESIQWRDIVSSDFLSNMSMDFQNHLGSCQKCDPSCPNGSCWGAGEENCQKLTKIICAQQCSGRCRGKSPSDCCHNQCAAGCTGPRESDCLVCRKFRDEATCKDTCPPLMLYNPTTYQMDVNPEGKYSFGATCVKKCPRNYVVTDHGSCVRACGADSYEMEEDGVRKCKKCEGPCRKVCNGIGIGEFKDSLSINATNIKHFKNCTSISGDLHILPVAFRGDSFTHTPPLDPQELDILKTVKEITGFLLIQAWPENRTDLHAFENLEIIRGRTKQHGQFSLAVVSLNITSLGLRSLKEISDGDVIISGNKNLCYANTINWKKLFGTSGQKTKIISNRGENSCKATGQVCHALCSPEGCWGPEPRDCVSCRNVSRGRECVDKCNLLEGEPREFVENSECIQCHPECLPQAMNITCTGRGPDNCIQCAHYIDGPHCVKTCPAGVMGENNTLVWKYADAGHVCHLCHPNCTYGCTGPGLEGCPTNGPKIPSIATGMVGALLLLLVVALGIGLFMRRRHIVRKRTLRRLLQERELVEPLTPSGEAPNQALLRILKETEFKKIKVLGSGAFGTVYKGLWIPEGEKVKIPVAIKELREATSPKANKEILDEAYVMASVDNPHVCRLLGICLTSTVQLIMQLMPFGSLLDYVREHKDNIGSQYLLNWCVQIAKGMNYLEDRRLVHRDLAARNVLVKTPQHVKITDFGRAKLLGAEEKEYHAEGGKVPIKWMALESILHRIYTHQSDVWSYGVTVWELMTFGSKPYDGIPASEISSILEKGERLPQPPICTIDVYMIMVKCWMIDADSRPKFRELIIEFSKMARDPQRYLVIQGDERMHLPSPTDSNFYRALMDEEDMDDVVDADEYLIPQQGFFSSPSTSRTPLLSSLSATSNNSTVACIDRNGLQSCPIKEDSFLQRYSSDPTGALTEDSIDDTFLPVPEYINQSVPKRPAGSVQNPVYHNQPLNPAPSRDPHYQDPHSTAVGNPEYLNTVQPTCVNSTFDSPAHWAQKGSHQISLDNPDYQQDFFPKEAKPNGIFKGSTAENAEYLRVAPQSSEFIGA
EXPERIMENTAL_DETAILS: HTRF-based EGFR biochemical assay, L858R/T790M/C797S
CONDITION_SET: 100 μM ATP, enzyme 0.02 nM
Respond with the bare value in nM.

>>> df
                      smiles_representation  measured_endpoint  result
0  CSc1nc(-c2cccc(NC(=O)c3ccccc3CN3Cc4ccccc4C3=O)c2)c(-c2ccnc(NC(C)=O)c2)[nH]1               IC50     610

// next item, IC50 requested
Request: Fill blank: measured IC50 of the molecule C=CC(=O)Nc1ccc(OC)c(Nc2cc(-c3[nH]c(SC)nc3-c3cccc(NC(=O)c4ccccc4CN4Cc5ccccc5C4=O)c3)ccn2)c1 is ____.
Result: 206

###

Quick record: IC50, EGFR WT (Homo sapiens).

Known results for compounds:
                                   compound    result
0  CSc1nc(-c2ccnc(NC(C)=O)c2)c(-c2cccc(NC(=O)c3c(F)ccc(O)c3CN3Cc4ccccc4C3=O)c2)n1C [Compound 059]  > 100 µM
1  CSc1nc(-c2cccc(NC(=O)c3c(F)ccc(O)c3CN3Cc4ccccc4C3=O)c2)c[nH]1 [Compound 058]  > 100 µM

Request: For the compound CSc1nc(-c2cccc(NC(=O)c3ccccc3CN3Cc4ccccc4C3=O)c2)c(-c2ccnc(NC(C)=O)c2)[nH]1 [Compound 047] , what IC50 is on record?
Result: > 100 µM
